These measurements were taken from paper PMC11648681.

Test system: THP-1 cells
Experiment: CCK-8 cell viability of THP-1 cells after 48 h compound treatment in HaCaT/THP-1 co-culture
Type: cell-based, human
Conditions: 125 μg/mL, 48 h, THP-1, individual replicate values

{"columns": ["Compound", "Subject of test", "Cell viability"],
 "data": [
  ["O=CCc1ccccc1 [phenylacetaldehyde, Phenylacetaldehyde]", "THP-1 cells", "17.3609%"],
  ["O=[N+]([O-])c1ccc(Cl)c([N+](=O)[O-])c1 [DNCB, 2,4-dinitrochlorobenzene]", "THP-1 cells", "8.767%"],
  ["O=c1c(-c2ccccc2)c1-c1ccccc1 [diphenylcyclopropenone, Diphenylcyclopropenone]", "THP-1 cells", "23.4184%"],
  ["N#CCCC(Br)(C#N)CBr (stereo not shown) [bromoml, 1,2-dibromo-2,4-dicyanobutane]", "THP-1 cells", "12.0752%"]
]}

---

Experiment: CCK-8 cell viability of THP-1 cells after 48 h compound treatment in HaCaT/THP-1 co-culture
Type: cell-based, human
Settings: human, THP-1 cells in co-culture with HaCaT cells, 62.5 μg/mL, 48 h, THP-1, individual replicate values
// reported viability at 48 h, 62.5 μg/mL for each item listed

{"columns": ["Molecule", "viability at 48 h, 62.5 μg/mL, %"],
 "data": [
  ["OCC(O)CO", 110],
  ["CC(C)CCCC(C)CCCC(C)CCCCC(C)CCCC(C)CCCC(C)C (centres unmarked)", 87.1],
  ["Sc1nc2ccccc2s1", 61.4],
  ["CC(C)(C)c1cc(O)ccc1O [THBQ, Tert-butylhydroquinone]", 47.1],
  ["O=CCc1ccccc1", 15.8],
  ["Oc1cccc(O)c1", 68],
  ["O=c1c(-c2ccccc2)c1-c1ccccc1", 26.6],
  ["N#CCCC(Br)(C#N)CBr (centres unmarked)", 12.2]
]}

---

Experiment: CCK-8 cell viability of THP-1 cells after 48 h compound treatment in HaCaT/THP-1 co-culture
Type: cell-based, human
Settings: human, 1000 μg/mL, 48 h, THP-1, individual replicate values
Property measured: viability at 48 h, 1000 μg/mL (%)

{"columns": ["Smiles data", "Assay value"],
 "data": [
  ["O=[N+]([O-])c1ccc(Cl)c([N+](=O)[O-])c1", 19.9]
]}

---

// reported viability at 48 h, 7.8125 μg/mL for each item listed
Experiment: CCK-8 cell viability of THP-1 cells after 48 h compound treatment in HaCaT/THP-1 co-culture
Assay type: cell-based, human
Settings: human, THP-1 cells in co-culture with HaCaT cells, 7.8125 μg/mL, 48 h, THP-1, individual replicate values

{"columns": ["Compound", "viability at 48 h, 7.8125 μg/mL"],
 "data": [
  ["Oc1cccc(O)c1 [resorcinol, Resorcinol]", "95.8%"],
  ["N#CCCC(Br)(C#N)CBr (stereo not shown) [bromoml, 1,2-dibromo-2,4-dicyanobutane]", "53.3%"],
  ["O=CCc1ccccc1 [phenylacetaldehyde, Phenylacetaldehyde]", "80.6%"],
  ["CC(C)CCCC(C)CCCC(C)CCCCC(C)CCCC(C)CCCC(C)C (stereo not shown) [squalane, Squalane]", "85%"],
  ["Sc1nc2ccccc2s1 [2-mercaptobenzothiazole]", "65.9%"],
  ["CC(C)(C)c1cc(O)ccc1O [THBQ, Tert-butylhydroquinone]", "117%"],
  ["O=c1c(-c2ccccc2)c1-c1ccccc1 [diphenylcyclopropenone, Diphenylcyclopropenone]", "21.2%"]
]}

---

Tested on: THP-1 cells
Assay: CCK-8 cell viability of THP-1 cells after 48 h compound treatment in HaCaT/THP-1 co-culture
Format: cell-based, human
Settings: 0.976563 μg/mL, 48 h, THP-1, individual replicate values
// reported Cell viability for each item listed

{"columns": ["Molecule", "Subject of test", "Uom", "Cell viability"],
 "data": [
  ["CC(C)CCCC(C)CCCC(C)CCCCC(C)CCCC(C)CCCC(C)C (centres unmarked)", "THP-1 cells", "%", 122.038],
  ["Sc1nc2ccccc2s1", "THP-1 cells", "%", 93.5695],
  ["N#CCCC(Br)(C#N)CBr (centres unmarked)", "THP-1 cells", "%", 102.88],
  ["C=CCc1ccc(O)c(OC)c1", "THP-1 cells", "%", 95.2766],
  ["Oc1cccc(O)c1", "THP-1 cells", "%", 87.3677],
  ["O=[N+]([O-])c1ccc(Cl)c([N+](=O)[O-])c1", "THP-1 cells", "%", 95.0987],
  ["CC(C)(C)c1cc(O)ccc1O [THBQ, Tert-butylhydroquinone]", "THP-1 cells", "%", 94.8298],
  ["O=c1c(-c2ccccc2)c1-c1ccccc1", "THP-1 cells", "%", 95.9291]
]}

---

Tested on: THP-1 cells
Test: CCK-8 cell viability of THP-1 cells after 48 h compound treatment in HaCaT/THP-1 co-culture
Format: cell-based, human
Conditions: 1000 μg/mL, 48 h, THP-1, individual replicate values
Property measured: Cell viability (%)

{"columns": ["Smiles data", "Assay value"],
 "data": [
  ["Oc1cccc(O)c1", 56.1435],
  ["O=CCc1ccccc1", 20.8421],
  ["Sc1nc2ccccc2s1", 12.1659]
]}
